assay_system: HTRA2, O43464
Sequence (O43464 355-458): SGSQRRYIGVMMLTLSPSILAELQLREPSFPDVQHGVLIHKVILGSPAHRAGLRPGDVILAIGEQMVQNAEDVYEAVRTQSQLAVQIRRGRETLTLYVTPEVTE
assay_method_text: holdup assay
Design: key: below the threshold = too weak to quantify, mostly under pKd 3.1 to 4
details: plain residues with an end cap or a label only (N-terminal biotin on a linker: ado-ado)

[
  {
    "binder": "QMNQTLPVQV [EPHB3, P54753]",
    "pKd": 3.59
  },
  {
    "binder": "PPYRHRNTVV [ERBB4, Q15303]",
    "pKd": "below the threshold"
  },
  {
    "binder": "PRISRSQSEL [CCDC134, Q9H6E4]",
    "pKd": "below the threshold"
  },
  {
    "binder": "QHKTQLQTLI [BPIFA2, Q96DR5]",
    "pKd": "below the threshold"
  },
  {
    "binder": "KKMPSIESDV [GRIN2A, Q12879]",
    "pKd": "below the threshold"
  },
  {
    "binder": "PRAEAEDSFL [PDGFRB, P09619]",
    "pKd": "below the threshold"
  },
  {
    "binder": "TPPAAKKSRI [BAZ1A, Q9NRL2]",
    "pKd": "below the threshold"
  },
  {
    "binder": "YYKRPVQEWV [MMP24, Q9Y5R2]",
    "pKd": 4.4
  }
]
